target: Dipeptidyl peptidase 2 (Homo sapiens, UniProt Q9UHL4)
measurement-name: IC50

Ask | API: value(readout= IC50, system= Dipeptidyl peptidase 2 (Homo sapiens, UniProt Q9UHL4), query= "CC(C)[C@H](Oc1ccc(CNC(=O)[C@@H]2CCCN2C(=O)C[C@H](N)Cc2cc(F)ccc2F)cc1)C(=O)O" )
Reply | > 100 µM

Ask | Please tell me: IC50 of CN(C)C(=O)[C@@H](c1ccc(C2=CN3N=CNC3C=C2)cc1)[C@H](N)C(=O)N1CC[C@H](F)C1 (some centres not stated) , system Dipeptidyl peptidase 2 (Homo sapiens, UniProt Q9UHL4)?
Reply | > 100 µM
